# test target: human TAAR1 (Homo sapiens (Human), UniProt Q96RJ0)
# Sequence (Q96RJ0 whole entry): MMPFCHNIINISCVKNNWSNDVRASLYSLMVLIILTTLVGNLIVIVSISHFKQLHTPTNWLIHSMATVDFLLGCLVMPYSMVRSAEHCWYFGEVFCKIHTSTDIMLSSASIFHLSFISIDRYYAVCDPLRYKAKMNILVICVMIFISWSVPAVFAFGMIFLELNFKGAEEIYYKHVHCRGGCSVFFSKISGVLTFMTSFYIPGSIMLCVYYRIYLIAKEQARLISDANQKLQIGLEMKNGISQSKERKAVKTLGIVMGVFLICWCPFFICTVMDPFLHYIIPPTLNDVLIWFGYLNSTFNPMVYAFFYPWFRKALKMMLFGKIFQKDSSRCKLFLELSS
# assay overview: cAMP functional assay in HEK293 cells expressing human TAAR1
# Type: cell-based
# test parameters: cAMP, HEK293 cells expressing human TAAR1; listed as example 11; read-out: hTAAR1 EC50
observation type: EC50

• O=C(Nc1ccc([C@H]2CNCCO2)cc1)c1ccc(C(F)(F)F)nc1 = 203 nM

----------
# test target: hERG potassium channel (Homo sapiens (Human))
# Sequence (Q12809 whole entry): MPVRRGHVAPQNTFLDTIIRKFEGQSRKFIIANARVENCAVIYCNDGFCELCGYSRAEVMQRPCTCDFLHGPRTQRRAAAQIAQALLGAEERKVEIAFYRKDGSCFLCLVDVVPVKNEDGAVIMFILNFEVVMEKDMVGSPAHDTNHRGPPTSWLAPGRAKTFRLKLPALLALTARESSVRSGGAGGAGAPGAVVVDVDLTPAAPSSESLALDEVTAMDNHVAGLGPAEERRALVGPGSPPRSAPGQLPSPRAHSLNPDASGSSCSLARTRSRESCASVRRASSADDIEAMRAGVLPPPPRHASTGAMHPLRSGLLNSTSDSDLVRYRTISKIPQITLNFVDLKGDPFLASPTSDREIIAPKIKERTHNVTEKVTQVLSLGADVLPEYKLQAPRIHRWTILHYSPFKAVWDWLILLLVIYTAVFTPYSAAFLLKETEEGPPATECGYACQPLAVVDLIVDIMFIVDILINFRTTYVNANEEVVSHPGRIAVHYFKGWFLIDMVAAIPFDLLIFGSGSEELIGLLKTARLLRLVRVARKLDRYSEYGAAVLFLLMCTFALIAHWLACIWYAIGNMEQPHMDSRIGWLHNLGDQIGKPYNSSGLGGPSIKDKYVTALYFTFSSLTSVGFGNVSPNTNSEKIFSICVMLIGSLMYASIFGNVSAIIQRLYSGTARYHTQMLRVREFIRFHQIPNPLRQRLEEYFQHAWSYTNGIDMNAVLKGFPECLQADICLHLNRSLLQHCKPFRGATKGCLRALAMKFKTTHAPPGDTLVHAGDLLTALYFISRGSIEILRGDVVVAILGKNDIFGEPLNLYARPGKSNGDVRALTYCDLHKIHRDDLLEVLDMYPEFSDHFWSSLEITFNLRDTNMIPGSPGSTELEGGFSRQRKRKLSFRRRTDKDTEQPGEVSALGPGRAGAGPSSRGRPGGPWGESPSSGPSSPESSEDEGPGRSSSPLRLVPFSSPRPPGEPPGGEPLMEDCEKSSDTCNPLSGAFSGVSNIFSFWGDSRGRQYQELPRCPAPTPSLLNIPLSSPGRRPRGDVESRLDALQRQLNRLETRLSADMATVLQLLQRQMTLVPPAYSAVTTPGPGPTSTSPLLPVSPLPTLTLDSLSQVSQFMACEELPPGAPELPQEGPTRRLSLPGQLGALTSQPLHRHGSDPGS
# assay overview: hERG whole-cell patch-clamp in stably transfected CHO cells
# Type: cell-based
# test parameters: patch-clamp, CHO cells, 36±1° C.
Label YES when IC50 is strictly below 70 µM; at or above that, label NO.

* Cc1cc(C(=O)Nc2ccc([C@H]3CNCCO3)cc2)cc(C)n1 [Example 18] | NO
* O=C(Nc1ccc([C@H]2CNCCO2)cc1)c1coc(-c2ccccc2)n1 [Example 15] | YES
* CCc1[nH]nc(C(=O)Nc2ccc([C@H]3CNCCO3)cc2)c1C [Example 1] | NO
* O=C(Nc1ccc([C@H]2CNCCO2)cc1)c1cncc(Cl)c1 [Example 13] | YES
* Cc1nc(C(=O)Nc2ccc([C@H]3CNCCO3)cc2)cs1 [Example 19] | YES
* O=C(Nc1ccc([C@H]2CNCCO2)cc1)c1cc(Cl)nc(Cl)c1 [Example 7] | YES
* Cc1cc(C(=O)Nc2ccc([C@H]3CNCCO3)cc2)ccn1 [Example 17] | NO
